Tested on: Clostridium difficile
Experiment: Broth microdilution MIC against Clostridium difficile strains
Format: cell-based
Details: Clostridioides difficile, C. difficile P29 (NR-32903); read-out: Minimum inhibitory concentration
Provide the recorded MIC for the entries that follow.
Quick reminder: number only, in µg/mL, skip the unit.

So for Cc1ncc([N+](=O)[O-])n1CCO [Metronidazole, reference compound] , the logged MIC turned out to be 0.0625

So for CCCCCCCCN(Cc1cccc2ccccc12)C(=O)[C@@H](N)CCCCN , the logged MIC turned out to be 8

So for CCCCCCCCCCN(Cc1cccc2ccccc12)C(=O)[C@@H](N)CCCCN , the logged MIC turned out to be 1

So for CCCCCCCCCCCCN(Cc1cccc2ccccc12)C(=O)[C@@H](N)CCCCN , the logged MIC turned out to be 2

So for CCCCCCN(Cc1cccc2ccccc12)C(=O)[C@@H](N)CCCCN , the logged MIC turned out to be 32

---

Provide the recorded Papp A→B at 2 h for the entries that follow.
Experiment: Caco-2 bidirectional permeability assay
Assay type: in vitro ADME, human
Conditions: human, Caco-2; apical (pH 6.5) to basolateral (pH 7.4), two hours
Quick reminder: number only, in ×10⁻⁶ cm/s, skip the unit.

So for CC(=O)CC(c1ccccc1)c1c(O)c2ccccc2oc1=O (stereo not drawn) [Warfarin] , the logged Papp A→B at 2 h turned out to be 12.7

So for CNC(=C[N+](=O)[O-])NCCSCc1ccc(CN(C)C)o1 [Ranitidine] , the logged Papp A→B at 2 h turned out to be 0.186

---

Test system: E. faecalis
Assay: Broth microdilution MIC against E. faecalis strains
Format: cell-based
Details: Enterococcus faecalis, E. faecalis B3336; read-out: Minimum inhibitory concentration
VALUE_KIND: MIC
Value and unit, in that order.

So for CCCCCCCCCCN(Cc1cccc2ccccc12)C(=O)[C@@H](N)CCCCN , the logged MIC turned out to be 2 µg/mL

So for CCCCCCCCN(Cc1cccc2ccccc12)C(=O)[C@@H](N)CCCCN , the logged MIC turned out to be 16 µg/mL

So for CCCCCCN(Cc1cccc2ccccc12)C(=O)[C@@H](N)CCCCN , the logged MIC turned out to be 128 µg/mL

So for CCCCCCCCCCCCN(Cc1cccc2ccccc12)C(=O)[C@@H](N)CCCCN , the logged MIC turned out to be 8 µg/mL

---

Test system: Clostridium difficile
Assay: Broth microdilution MIC against Clostridium difficile strains
Type: cell-based
Conditions: Clostridioides difficile, C. difficile Isolate 10 (NR-13436); read-out: Minimum inhibitory concentration
VALUE_KIND: MIC (µg/mL)
Quick reminder: number only, in µg/mL, skip the unit.

So for CCCCCCCCCCN(Cc1cccc2ccccc12)C(=O)[C@@H](N)CCCCN , the logged MIC turned out to be 1

So for CCCCCCCCCCCCN(Cc1cccc2ccccc12)C(=O)[C@@H](N)CCCCN , the logged MIC turned out to be 2

So for CCCCCCN(Cc1cccc2ccccc12)C(=O)[C@@H](N)CCCCN , the logged MIC turned out to be 64

So for CCCCCCCCN(Cc1cccc2ccccc12)C(=O)[C@@H](N)CCCCN , the logged MIC turned out to be 8

So for Cc1ncc([N+](=O)[O-])n1CCO [Metronidazole, reference compound] , the logged MIC turned out to be 0.125

---

Tested on: Clostridium difficile
Test: Broth microdilution MIC against Clostridium difficile strains
Type: cell-based
Settings: Clostridioides difficile, C. difficile Isolate 2 (NR-13428); read-out: Minimum inhibitory concentration
Provide the recorded MIC for the entries that follow.
Quick reminder: number only, in µg/mL, skip the unit.

So for Cc1ncc([N+](=O)[O-])n1CCO [Metronidazole, reference compound] , the logged MIC turned out to be 0.0625

So for CCCCCCCCCCN(Cc1cccc2ccccc12)C(=O)[C@@H](N)CCCCN , the logged MIC turned out to be 1

So for CCCCCCN(Cc1cccc2ccccc12)C(=O)[C@@H](N)CCCCN , the logged MIC turned out to be 64

So for CCCCCCCCN(Cc1cccc2ccccc12)C(=O)[C@@H](N)CCCCN , the logged MIC turned out to be 8

So for CCCCCCCCCCCCN(Cc1cccc2ccccc12)C(=O)[C@@H](N)CCCCN , the logged MIC turned out to be 2

---

System: Clostridium difficile
Test: Broth microdilution MIC against Clostridium difficile strains
Format: cell-based
Details: Clostridioides difficile, C. difficile P4 (NR-32889); read-out: Minimum inhibitory concentration
VALUE_KIND: log10 MIC (log10 of the value in µg/mL)
Kindly note that the scale is log10 and the underlying MIC is in µg/mL.

Entry CCCCCCCCCCN(Cc1cccc2ccccc12)C(=O)[C@@H](N)CCCCN under Clostridium difficile had log10 MIC of 0.30

Entry CCCCCCCCCCCCN(Cc1cccc2ccccc12)C(=O)[C@@H](N)CCCCN under Clostridium difficile had log10 MIC of 0.60

Entry Cc1ncc([N+](=O)[O-])n1CCO [Metronidazole, reference compound] under Clostridium difficile had log10 MIC of -0.90

Entry CCCCCCN(Cc1cccc2ccccc12)C(=O)[C@@H](N)CCCCN under Clostridium difficile had log10 MIC of 1.81

Entry CCCCCCCCN(Cc1cccc2ccccc12)C(=O)[C@@H](N)CCCCN under Clostridium difficile had log10 MIC of 0.90

---

Tested on: Clostridium difficile
Test: Broth microdilution MIC against Clostridium difficile strains
Type: cell-based
Conditions: Clostridioides difficile, across all tested strains of C. difficile
VALUE_KIND: MIC

So for CCCCCCN(Cc1cccc2ccccc12)C(=O)[C@@H](N)CCCCN [NCK-6] , the logged MIC turned out to be 32 µg/mL

So for CCCCCCCCCCCCN(Cc1cccc2ccccc12)C(=O)[C@@H](N)CCCCN [NCK-12] , the logged MIC turned out to be 1 to 4 µg/mL

So for CCCCCCCCN(Cc1cccc2ccccc12)C(=O)[C@@H](N)CCCCN [NCK-8] , the logged MIC turned out to be 2 to 8 µg/mL

So for CCCCCCCCCCN(Cc1cccc2ccccc12)C(=O)[C@@H](N)CCCCN [NCK-10] , the logged MIC turned out to be 0.5 to 2 µg/mL

---

System: E. faecalis
Assay: Broth microdilution MIC against E. faecalis strains
Type: cell-based
Conditions: Enterococcus faecalis, E. faecalis SF28073 (vancomycin-resistant); read-out: Minimum inhibitory concentration
Provide the recorded MIC for the entries that follow.
Quick reminder: number only, in µg/mL, skip the unit.

So for CCCCCCCCN(Cc1cccc2ccccc12)C(=O)[C@@H](N)CCCCN [NCK-8] , the logged MIC turned out to be 16

So for CCCCCCCCCCCCN(Cc1cccc2ccccc12)C(=O)[C@@H](N)CCCCN [NCK-12] , the logged MIC turned out to be 4

So for CCCCCCN(Cc1cccc2ccccc12)C(=O)[C@@H](N)CCCCN [NCK-6] , the logged MIC turned out to be 128

So for CCCCCCCCCCN(Cc1cccc2ccccc12)C(=O)[C@@H](N)CCCCN [NCK-10] , the logged MIC turned out to be 2

---

Provide the recorded efflux ratio at 2 h for the entries that follow.
Assay: Caco-2 bidirectional permeability assay
Type: in vitro ADME, human
Conditions: human, Caco-2; Re = (Papp B→A)/(Papp A→B)
// return a plain number; no unit text

So for CNC(=C[N+](=O)[O-])NCCSCc1ccc(CN(C)C)o1 , the logged efflux ratio at 2 h turned out to be 5.18

So for CC(=O)CC(c1ccccc1)c1c(O)c2ccccc2oc1=O (centres unmarked) , the logged efflux ratio at 2 h turned out to be 1.54
